This collection of values is drawn from ChEMBL document CHEMBL1212709.

TARGET_UNDER_TEST: Phospholipase D2 (Homo sapiens)
Sequence (O14939 whole entry): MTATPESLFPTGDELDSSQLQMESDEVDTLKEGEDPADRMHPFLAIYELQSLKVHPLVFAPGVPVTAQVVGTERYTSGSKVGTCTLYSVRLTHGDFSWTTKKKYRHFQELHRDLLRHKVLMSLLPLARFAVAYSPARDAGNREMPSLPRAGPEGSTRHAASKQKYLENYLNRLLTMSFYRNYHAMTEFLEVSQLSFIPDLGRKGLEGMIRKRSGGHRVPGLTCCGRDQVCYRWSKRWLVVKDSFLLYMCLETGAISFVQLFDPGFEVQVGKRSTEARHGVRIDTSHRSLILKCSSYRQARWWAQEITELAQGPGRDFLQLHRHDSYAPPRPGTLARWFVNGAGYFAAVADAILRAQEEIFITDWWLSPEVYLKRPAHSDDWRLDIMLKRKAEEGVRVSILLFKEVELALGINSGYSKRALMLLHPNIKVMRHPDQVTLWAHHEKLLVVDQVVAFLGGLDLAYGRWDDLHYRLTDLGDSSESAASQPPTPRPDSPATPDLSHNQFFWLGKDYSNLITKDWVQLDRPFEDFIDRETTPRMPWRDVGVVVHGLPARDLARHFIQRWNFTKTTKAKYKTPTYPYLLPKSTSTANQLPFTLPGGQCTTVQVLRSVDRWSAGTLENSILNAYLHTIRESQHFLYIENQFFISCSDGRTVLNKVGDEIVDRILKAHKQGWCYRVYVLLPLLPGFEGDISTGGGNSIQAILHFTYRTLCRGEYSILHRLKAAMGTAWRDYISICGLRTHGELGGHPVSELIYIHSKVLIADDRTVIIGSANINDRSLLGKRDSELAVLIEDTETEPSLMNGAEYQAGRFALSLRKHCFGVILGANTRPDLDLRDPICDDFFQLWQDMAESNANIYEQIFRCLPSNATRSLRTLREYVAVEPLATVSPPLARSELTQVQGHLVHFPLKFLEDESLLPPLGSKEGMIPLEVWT
ASSAY_EXPLANATION: Inhibition of GFP-tagged human PLD2 expressed in human HEK293 cells assessed as decrease in phosphatidylbutanol-[d9] production after 30 mins by mass spectrometric analysis
Assay type: cell-based
// reported IC50 for each item listed
// return numeric value only (unit: nM, not printed)

Guide cases for IC50, answers given:
{"COMPOUND": "O=C(NCCN1CCC(n2c(=O)[nH]c3ccccc32)CC1)n1c2ccccc2c2ccccc21", "IC50, nM": 260}
{"COMPOUND": "O=C(c1ccc(F)cc1)N(CCN1CCC(n2c(=O)[nH]c3ccccc32)CC1)C(=O)c1ccc(F)cc1", "IC50, nM": 470}

// query Request the reported IC50 associated with `O=C(NCCN1CCC(n2c(=O)[nH]c3ccccc32)CC1)c1cc(Br)c(Br)o1`
// result 220

// query Request the reported IC50 associated with `O=C(NCCN1CCC(n2c(=O)[nH]c3ccccc32)CC1)c1cc2ccccc2s1`
// result 210

// query Request the reported IC50 associated with `Cc1ccc(C(=O)NCCN2CCC(n3c(O)nc4ccccc43)CC2)cc1`
// result 210

// query Request the reported IC50 associated with `COc1ccc(C(=O)NCCN2CCC(n3c(=O)[nH]c4ccccc43)CC2)cc1`
// result 1100

// query Request the reported IC50 associated with O=C(c1ccc(OCCN2CCCCC2)cc1)c1c(-c2ccc(O)cc2)sc2cc(O)ccc12 [RALOXIFENE]
// result 10000

// query Request the reported IC50 associated with `O=C(NCCN1CCC(n2c(O)nc3ccccc32)CC1)c1cccc2c1-c1ccccc1C2=O`
// result 1000

// query Request the reported IC50 associated with `O=C(NCCN1CCC(n2c(O)nc3ccccc32)CC1)c1ccc(Cl)cc1`
// result 140
